target: human 20S immunoproteasome (i20S) (Homo sapiens); assay: 20S proteasome assay, chymotrypsin-like activity (succinyl-Leu-Leu-Val-Tyr-AMC), i20S; format: biochemical; conditions: LLVY substrate, 1 h continuous
readout: IC50 (nM)

| smiles-code | IC50 (nM) |
| --- | --- |
| COc1ccc(C[C@H](NC(=O)[C@@H](C)NC(=O)C2CCOCC2)C(=O)N[C@@H](CC2=CCCC2)C(=O)[C@@]2(C)CO2)cc1O | 20.2 |

(1) COc1ccc(C[C@H](NC(=O)[C@@H](C)NC(=O)CC2CCOCC2)C(=O)N[C@@H](CC2CCCC2)C(=O)[C@@]2(C)CO2)cc1
(2) COc1ccc(C[C@H](NC(=O)[C@@H](C)NC(=O)[C@@H]2CCCO2)C(=O)N[C@@H](CC2CCCC2)C(=O)[C@@]2(C)CO2)cc1
(3) COc1ccc(C[C@H](NC(=O)[C@@H](C)NC(=O)[C@H]2CCCO2)C(=O)N[C@@H](CC2CCCC2)C(=O)[C@@]2(C)CO2)cc1
(4) COc1ccc(C[C@H](NC(=O)[C@@H](C)NC(=O)C2CC(=O)C2)C(=O)N[C@@H](CC2CCCC2)C(=O)[C@@]2(C)CO2)cc1
Please produce an ascending ranking of these compounds based on IC50. Dear reader, please state the labels in the requested order.
1, 4, 3, 2
